Please go through the items and note down their TGI.
- System: DMS 114 small cell lung
- assayProcedure: NCI tumour cell line growth inhibition, 48 h
Write the answer as a number in µM, unit excluded.

Record lookup: for DMS 114 small cell lung, what TGI belongs to "OCc1cc2c(cn1)[nH]c1ccc(NCc3ccccc3)cc12" ?
51.1

API: value(readout= TGI, system= DMS 114 small cell lung, query= "CCCCCCN(CCCCCC)C(=S)N/N=C(\C)c1ccccn1" )
2.29

Request body: readout TGI, system DMS 114 small cell lung, query "CC1=C(C(=O)Nc2ccccc2)C(c2ccc(N(C)C)cc2)C(C(=O)Nc2ccccc2)=C(C)N1" . Return the value.
6.57

What TGI appears in the records for this compound with DMS 114 small cell lung? "CCc1ccccc1NC(=O)c1cccc([N+](=O)[O-])c1O"
51.5

Write down the reported TGI of COC1N(C2CC(O)C(CO)O2)C(=O)NC(=O)C1(F)Br (stereo unspecified) , test system: DMS 114 small cell lung.
50
